These entries and their values trace back to PubChem BioAssay (NCI).

Tested on: RXF 393 renal
Assay: NCI tumour cell line growth inhibition, 48 h
Reported TGI values are given for each entry in this list.

Problem: Consider the compound C=CCc1c(O)c2nsnc2c2nsnc12 and give its measured TGI.
Solution: > 10 µM

Problem: Consider the compound Nc1ccccc1C(=O)CCC1C(=O)NC(=S)NC1=O and give its measured TGI.
Solution: > 100 µM

Problem: Consider the compound Cc1cc(Nc2cc(N3CCN(C)CC3)nc(/C=C/c3ccccc3)n2)n[nH]1 and give its measured TGI.
Solution: 1.04 µM

---

System: DMS 273 small cell lung
Experiment: NCI tumour cell line growth inhibition, 48 h
parameter: TGI

Known TGI results, listed for orientation:
# molecule, tested-system, TGI
records = [
    ("COC1(OC)C2(Cl)C(Cl)=C(Cl)C1(Cl)C1C2C2CC1(C(=O)O)c1ccccc12 (stereo not drawn)", "DMS 273 small cell lung", "41.2 µM"),
    ("COC1OC2COC(C)(C)OC2C(OC(C)=O)C1NC(=O)N(CCCl)N=O (stereo not drawn)", "DMS 273 small cell lung", "> 100 µM"),
]

Note: attention shifts to another entry.
Problem: Consider the molecule CN(/N=C/c1ccnc2ccccc12)c1c([N+](=O)[O-])cc([N+](=O)[O-])cc1[N+](=O)[O-] and give its measured TGI.
Solution: > 100 µM

---

Reported TGI values are given for each entry in this list.
System: SW-620 colon
Assay: NCI tumour cell line growth inhibition, 48 h

Known TGI results, listed for orientation:
# compound, tested-system, TGI
rows = [
    ("COc1ccc(COC(=O)NCC(=O)NC(C)C(=O)NC(Cc2ccccc2)C(=O)OCc2ccccc2)cc1 (stereo unspecified)", "SW-620 colon", "> 100 µM"),
    ("CCOP(=O)(OCC)C(C(=O)OC)C(=O)C(=O)Nc1cccc(O)c1 (stereo unspecified)", "SW-620 colon", "> 100 µM"),
    ("O=C(/C=C/c1cccc([N+](=O)[O-])c1)c1ccc([N+](=O)[O-])cc1", "SW-620 colon", "> 100 µM"),
    ("CC(C)(Cl)C(Br)CCC(Br)(CCl)C(Cl)CBr (stereo unspecified)", "SW-620 colon", "> 10 µM"),
]

Problem: Consider the compound O=C(c1ccc(Cl)cc1)C(O)c1ccc(Cl)cc1 (stereo unspecified) and give its measured TGI.
Solution: > 100 µM

Problem: Consider the compound CC(C)=CCC[C@@H](C)C1=C(O)C(Nc2ccccc2Cl)=C(C)C(=O)C1=O and give its measured TGI.
Solution: > 75 µM

---

Test system: SK-MEL-2 melanoma
Test: NCI tumour cell line growth inhibition, 48 h
Reported TGI values are given for each entry in this list.

Known TGI results, listed for orientation:
# molecule, assay-value
rows = [
    ("Cc1ccc2c(=O)cc(-c3ccc4ccccc4c3)[nH]c2n1", "> 100 µM"),
    ("CC(=O)[CH-]C(=O)c1ccccc1.CC(=O)[CH-]C(=O)c1ccccc1.O=S(=O)([O-])c1cc([O-])c2c([O-])cc(S(=O)(=O)[O-])cc2c1.[Na+].[Zr+4]", "> 100 µM"),
]

Note: attention shifts to another entry.
Problem: Which measured TGI belongs to COC(=O)[C@@]12CC(C(C)C)[C@H]3CC(C(=O)C=C1OC)[C@H]32 (stereo partly drawn) , tested on SK-MEL-2 melanoma?
Solution: > 100 µM

---

System: HS 578T breast
Assay: NCI tumour cell line growth inhibition, 48 h
Reported TGI values are given for each entry in this list.

# molecule, tested-system, parameter, assay-value
measured = [
    ("O=C(/C=C/c1ccccc1)Nc1ccccc1SCCCCl", "HS 578T breast", "TGI", "> 29.3 µM"),
    ("CN(CCCNC(=O)c1cn(C)c2c1Cc1ccccc1-2)CCCNC(=O)c1cn(C)c2c1Cc1ccccc1-2", "HS 578T breast", "TGI", "25.2 µM"),
    ("CC(=O)c1ccc2c(c1)CC1(C2)Cc2cc3c(c(C(=O)O)c2C1)CCC3 (centres undefined)", "HS 578T breast", "TGI", "> 100 µM"),
]

Problem: Consider the molecule CCCCCC/C=C\CCCCCCCCCC1=C(CN2CCN(C)CC2)C(=O)C=C(OC)C1=O and give its measured TGI.
Solution: 24.5 µM

Problem: Consider the molecule CC(C)=CCC[C@@H](C)C1=C(O)C(Nc2ccccc2Cl)=C(C)C(=O)C1=O and give its measured TGI.
Solution: > 69.9 µM

Problem: Consider the molecule COc1ccc(N=NC(=O)NC(CC(C)C)C(=O)NCC(=O)O)cc1 (centres undefined) and give its measured TGI.
Solution: > 100 µM

Problem: Consider the molecule Cc1c(N=C/C=C/c2ccccc2)c(=O)n(-c2ccccc2)n1C and give its measured TGI.
Solution: 69.8 µM

Problem: Consider the molecule CCC1(c2ccc(N3C(=O)c4cc(OC)c(OC)cc4C3=O)cc2)CCC(=O)NC1=O (centres undefined) and give its measured TGI.
Solution: > 10 µM

Problem: Consider the molecule C=CCC(N[C@@H](CO)c1ccccc1)c1cn(C(=O)OCC)c2ccccc12 (some centres undefined) and give its measured TGI.
Solution: 40.3 µM

Problem: Consider the molecule CSc1ccc(Nc2cc(=O)[nH]c(=O)[nH]2)cc1 and give its measured TGI.
Solution: > 100 µM

Problem: Consider the molecule CCc1ccc(COC(=O)C2=C(C)NC(C)=C(C(=O)OCc3ccc(CC)cn3)C2C2=COCCO2)nc1 and give its measured TGI.
Solution: 37.7 µM

Problem: Consider the molecule CCOP(=O)(OCC)C(C(=O)OC)C(=O)C(=O)Nc1cccc(O)c1 (centres undefined) and give its measured TGI.
Solution: > 100 µM

Problem: Consider the molecule Nc1nc(/C=C\c2ccccc2)nc(N2CCN(c3ccccc3)CC2)n1 and give its measured TGI.
Solution: > 100 µM

Problem: Consider the molecule Cn1c2c(c3ccccc31)CCN1C(=O)CCC21 (centres undefined) and give its measured TGI.
Solution: > 10 µM

Problem: Consider the molecule CC(C)(Cl)C(Br)CCC(Br)(CCl)C(Cl)CBr (centres undefined) and give its measured TGI.
Solution: > 10 µM

---

System: SF-268 CNS
Assay: NCI tumour cell line growth inhibition, 48 h
parameter: TGI

# compound, TGI
records = [
    ("CSc1ccc(Nc2cc(=O)[nH]c(=O)[nH]2)cc1", "> 100 µM"),
]

Problem: Consider the compound CC(=O)[C@H]1CCC/C=C/[C@@H]2C[C@H](O)C[C@H]2[C@H](O)/C=C/C(=O)O1 and give its measured TGI.
Solution: > 100 µM

Problem: Consider the compound Cc1c(CCCl)c(N=P(c2ccccc2)(c2ccccc2)c2ccccc2)n2c(nc3ccccc32)c1C#N and give its measured TGI.
Solution: > 10 µM

---

Test system: MDA-MB-231 breast
Assay: NCI tumour cell line growth inhibition, 48 h
Reported TGI values are given for each entry in this list.

Known TGI results, listed for orientation:
# compound, TGI
rows = [
    ("CCOC(=O)C(C#N)C1=CC(=O)C(=O)c2ccc(O)cc21 (stereo not drawn)", "> 100 µM"),
    ("CCOP(=O)(OCC)C(C(=O)OC)C(=O)C(=O)Nc1cccc(O)c1 (stereo not drawn)", "> 100 µM"),
    ("COC(=O)CCNC(=O)OCc1ccccc1", "> 100 µM"),
    ("COC(=O)c1cc2c3ccccc3n3c2c(n1)-c1[nH]c2ccccc2c(=O)c1C3", "> 100 µM"),
    ("CSc1nc2c(c(=O)n1C)CN(C1CCCCC1)C(=O)C(c1ccccc1)N2 (stereo not drawn)", "> 100 µM"),
    ("O=C(O)C1[O][Sb][O]C(C(=O)O)C1O (stereo not drawn)", "> 100 µM"),
    ("Cc1cc(=O)oc2cc(OCC(O)COC(C)C)ccc12 (stereo not drawn)", "> 100 µM"),
    ("CC(C)CC(N)C(=O)Nc1ccc2ccccc2c1 (stereo not drawn)", "> 100 µM"),
    ("CC1=C(O)c2ccccc2C(=O)C1=O", "> 100 µM"),
    ("OC(CN(CCCl)CCCl)C(O)C(O)C(O)CN(CCCl)CCCl (stereo not drawn)", "> 100 µM"),
]

Problem: Which measured TGI belongs to O=C1CC(CC(=O)c2ccc(Br)cc2)C(=O)/C1=C(/O)c1ccc(Br)cc1 (stereo not drawn) , tested on MDA-MB-231 breast?
Solution: > 100 µM

Problem: Which measured TGI belongs to Cc1ccc2c(=O)cc(-c3ccc4ccccc4c3)[nH]c2n1 , tested on MDA-MB-231 breast?
Solution: > 100 µM

Problem: Which measured TGI belongs to Cc1cc2nc3ccccc3n2c2nc(N)ccc12 , tested on MDA-MB-231 breast?
Solution: > 100 µM

---

Test system: LOX IMVI melanoma
Assay: NCI tumour cell line growth inhibition, 48 h
parameter: TGI

# molecule, assay-value
records = [
    ("CC(C)=CCC[C@@H](C)C1=C(O)C(Nc2ccccc2Cl)=C(C)C(=O)C1=O", "> 75 µM"),
    ("O=C1O[C@H]2[C@H](OC(=O)c3cc(O)c(O)c(O)c3)[C@@H](OC(=O)c3cc(O)c(O)c4c3[C@@H]3C1=CC(=O)C(O)(O)C3(O)O4)[C@H](OC(=O)c1cc(O)c(O)c(O)c1)O[C@@H]2COC(=O)c1cc(O)c(O)c(O)c1 (some centres undefined)", "> 100 µM"),
    ("CC(C)(Cl)C(Br)CCC(Br)(CCl)C(Cl)CBr (centres undefined)", "> 10 µM"),
]

Problem: Consider the molecule O=C1NN(Cc2ccccc2)C(=O)N2CCC[C@@H]12 and give its measured TGI.
Solution: > 100 µM
